These data points were gathered from ChEMBL document CHEMBL2062451.

- Test system: Hepatitis C virus
- test protocol: Antiviral activity against Hepatitis C virus (isolate Con1) genotype 1b infected in human HuH7 cells assessed as inhibition of viral replication after 24 hrs in presence of 50% NHS
- Type: functional, organism-based, Hepacivirus hominis
- measurement context: genotype 1b Con1, Huh-7, 24 h
Overview of recorded IC50 for various molecules
Numeric only. Scale: µM

## Input Observed IC50 on Hepatitis C virus for "C=C[C@@H]1C[C@]1(NC(=O)[C@@H]1C[C@@H]2CN1C(=O)[C@H](C(C)(C)C)NC(=O)O[C@@H]1C[C@H]1CCCCCc1nc3ccc(OC)cc3cc1O2)C(=O)NS(=O)(=O)C1CC1" , please.
## Output 0.013

## Input Observed IC50 on Hepatitis C virus for "C=C[C@@H]1C[C@]1(NC(=O)[C@@H]1C[C@@H]2CN1C(=O)[C@H](C1CCCCC1)NC(=O)OCC(C)(C)CCCc1ccc3ccnc(c3c1)O2)C(=O)NS(=O)(=O)C1CC1" , please.
## Output 0.01

## Input Observed IC50 on Hepatitis C virus for "C=C[C@@H]1C[C@]1(NC(=O)[C@@H]1C[C@@H]2CN1C(=O)[C@H](C(C)(C)C)NC(=O)O[C@@H]1CCC[C@H]1CCCCCc1nc3ccc(OC)cc3cc1O2)C(=O)NS(=O)(=O)C1CC1" , please.
## Output 0.016

## Input Observed IC50 on Hepatitis C virus for "C=C[C@@H]1C[C@]1(NC(=O)[C@@H]1C[C@@H]2CN1C(=O)[C@H](C1CCCCC1)NC(=O)OCC(C)(C)CCCc1ccc3c(c1)c(nc1ccccc13)O2)C(=O)NS(=O)(=O)C1CC1" , please.
## Output 0.019

## Input Observed IC50 on Hepatitis C virus for "C=C[C@@H]1C[C@]1(NC(=O)[C@@H]1C[C@@H]2CN1C(=O)[C@H](C1CCCCC1)NC(=O)OCC(C)(C)CCCCCc1nc3ccc(OC)cc3cc1O2)C(=O)NS(=O)(=O)C1CC1" , please.
## Output 0.028

## Input Observed IC50 on Hepatitis C virus for "C=C[C@@H]1C[C@]1(NC(=O)[C@@H]1C[C@@H]2CN1C(=O)[C@H](C1CCCCC1)NC(=O)OCC(C)(C)CCCc1ccc3nc(-c4ccccc4)cc(c3c1)O2)C(=O)NS(=O)(=O)C1CC1" , please.
## Output 0.019

## Input Observed IC50 on Hepatitis C virus for "C=C[C@@H]1C[C@]1(NC(=O)[C@@H]1C[C@@H]2CN1C(=O)[C@H](C1CCCCC1)NC(=O)OCC(C)(C)CCCCCc1nc3ccccc3cc1O2)C(=O)NS(=O)(=O)C1CC1" , please.
## Output 0.018

Continuing:
## Input Observed IC50 on Hepatitis C virus for C=C[C@@H]1C[C@]1(NC(=O)[C@@H]1C[C@@H]2CN1C(=O)[C@H](C(C)(C)C)NC(=O)O[C@@H]1C[C@H]1CCCCCc1nc3ccc(OC)cc3nc1O2)C(=O)NS(=O)(=O)C1CC1 [GRAZOPREVIR ANHYDROUS] , please.
## Output 0.0074
